This collection of values is drawn from patent EP4534554A1.

Target: MAGE-A1 target antigen peptide … presented by HLA-A*02:01 on cells (human)
Assay: cell-based or functional assay
Quick reference: EC50 Value (M), JKR9 reporter activation by peptide-loaded T2 cells of the listed items.
Report the figure in M without appending any unit label.

The examples below pair each entry with its known result.
BINDER	UNIT_LABEL	MEAS_VALUE
ht27M1457 (TCR, V domains shown) Valpha: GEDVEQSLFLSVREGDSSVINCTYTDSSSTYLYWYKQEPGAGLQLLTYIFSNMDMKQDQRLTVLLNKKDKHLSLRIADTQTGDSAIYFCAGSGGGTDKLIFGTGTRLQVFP Vbeta: GAVVSQHPSWVICKSGTSVKIECRSLDFQATTMFWYRQFPKQSLMLMATTDYGSKATYEQGVEKDKFLINHASLTLSTLTVTSAHPEDSSFYICSAREPGQGPYEQYFGPGTRLTVT	M	4.73e-08
ht27M1226 (TCR, V domains shown) Valpha: GEDVEQSLFLSVREGDSSVINCTYTDSLSTYLYWYKQEPGAGLQLLTYIFSNMDMKQDQRLTVLLNKKDKHLSLRIADTQTGDSAIYFCAGSGGGTDKLIFGTGTRLQVFP Vbeta: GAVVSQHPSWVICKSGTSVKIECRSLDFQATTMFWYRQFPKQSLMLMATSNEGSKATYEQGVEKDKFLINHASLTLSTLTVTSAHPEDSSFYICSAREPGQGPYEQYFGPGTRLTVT	M	5.88e-07
ht27M1401 (TCR, V domains shown) Valpha: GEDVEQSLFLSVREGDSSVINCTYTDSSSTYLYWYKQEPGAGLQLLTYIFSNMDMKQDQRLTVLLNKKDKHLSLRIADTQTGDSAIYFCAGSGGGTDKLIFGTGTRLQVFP Vbeta: GAVVSQHPSWVICKSGTSVKIECRSLDFQATTMFWYRQFPKQSLMLMATTQPLSKATYEQGVEKDKFLINHASLTLSTLTVTSAHPEDSSFYICSAREPGQGPYEQYFGPGTRLTVT	M	9.05e-08
ht27M1381 (TCR, V domains shown) Valpha: GEDVEQSLFLSVREGDSSVINCTYVDPYSTYLYWYKQEPGAGLQLLTYIFSNMDMKQDQRLTVLLNKKDKHLSLRIADTQTGDSAIYFCAGSGGGTDKLIFGTGTRLQVFP Vbeta: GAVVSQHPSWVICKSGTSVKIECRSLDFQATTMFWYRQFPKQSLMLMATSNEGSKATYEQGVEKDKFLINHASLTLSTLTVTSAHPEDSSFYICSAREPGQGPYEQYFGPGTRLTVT	M	1.28e-07

*Q* Could you share which EC50 Value (M), JKR9 reporter activation by peptide-loaded T2 cells value was measured for ht27M1128 (TCR, V domains shown) Valpha: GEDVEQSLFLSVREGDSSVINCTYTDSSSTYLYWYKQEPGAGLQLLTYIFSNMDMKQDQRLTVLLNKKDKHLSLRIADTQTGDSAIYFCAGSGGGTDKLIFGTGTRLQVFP Vbeta: GAVVSQHPSWVICKSGTSVKIECRSLDFQATTMFWYRQFPKQSLMLMATSNEGSKATYEQGVEKDKFLINHASLTLSTLTVTSAHPEDSSFYICLAREPGQGPYEQYFGPGTRLTVT ?
*A* 3.95e-08
